molecular target: T1, human melanocortin-5 receptor (hMC5-R) (human, UniProt P33032 1-325); assay: 125I-NDP-α-MSH competition, hMC5-R membranes
T1 construct: whole, on cells; membranes prepared from hMC5-R cells were used; also called Melanocortin Receptor 5
T1 sequence (P33032 whole entry): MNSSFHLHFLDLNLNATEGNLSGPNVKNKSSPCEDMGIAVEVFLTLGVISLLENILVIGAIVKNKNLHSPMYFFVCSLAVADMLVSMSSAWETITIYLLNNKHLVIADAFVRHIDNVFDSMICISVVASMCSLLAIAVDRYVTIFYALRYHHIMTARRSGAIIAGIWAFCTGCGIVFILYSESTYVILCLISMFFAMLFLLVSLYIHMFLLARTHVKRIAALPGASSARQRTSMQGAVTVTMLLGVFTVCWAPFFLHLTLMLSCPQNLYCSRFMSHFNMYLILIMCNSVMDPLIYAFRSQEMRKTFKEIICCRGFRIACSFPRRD
Square brackets hold non-standard residues; d marks the D form. Ends that are not written are not given here. Nle = CCCC[C@H](N)C(=O)O
% Inhibition at 1 µM under 20% gets class 1, anything at or over 20% gets class 0.

% Inhibition at 1 µM under 20%? Item: SYSXEHFRWGKGVC (N-terminal acetyl; Nle 4 (X in letters); D-Cys 14; C-terminal amide; Re complexed at D-Cys 14) [metallopeptide 2-1]
class 0

% Inhibition at 1 µM under 20%? Item: Ac-SYS[Nle]EHFRWGKG[dC]V-NH2 (also: oxorhenium(V) N3S1 chelate at D-Cys13) [metallopeptide 2-2]
class 0

Continuing:
% Inhibition at 1 µM under 20%? Item: YV[Nle]GHFRWDCRF-NH2 (also: oxorhenium(V) N3S1 chelate: C10 SG + backbone N of W8, D9, C10, bridge at 10 via Re(V)=O, other end not in the chain) [metallopeptide 4-3]
class 0

% Inhibition at 1 µM under 20%? Item: YV[Nle]CGHFRWDRF-NH2 (also: oxorhenium(V) N3S1 chelate: C4 SG + backbone N of V2, X3, C4, bridge at 4 via Re(V)=O, other end not in the chain) [metallopeptide 4-9]
class 0

% Inhibition at 1 µM under 20%? Item: Ac-SYS[Nle]E[dC]HFRWGKPV-NH2 (also: oxorhenium(V) N3S1 chelate at D-Cys 6) [metallopeptide 2-9]
class 1
